Overview of recorded polymerase ribozyme fitness (log ratio) for various variants
B1: TPR t1 (parent)
chain: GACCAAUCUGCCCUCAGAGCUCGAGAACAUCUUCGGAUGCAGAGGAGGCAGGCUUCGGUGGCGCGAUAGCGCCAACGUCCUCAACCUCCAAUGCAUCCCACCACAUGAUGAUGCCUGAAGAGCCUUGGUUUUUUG

Variants of: B1
Test protocol: polymerase ribozyme fitness, log enrichment relative to wild type (log ratio); higher = more active; in vitro selection for triplet polymerase activity
Kindly provide the number alone.

C12G U33G: -4.76

Write down polymerase ribozyme fitness (log ratio) measured for item C49A C62G C76U
-5.79

Please report the measured polymerase ribozyme fitness (log ratio) for C88U C89A A121U G122A
-1.15

Give the value of polymerase ribozyme fitness (log ratio) reported for the following: C72A C79A C94A G127C
-2.85

Output measured polymerase ribozyme fitness (log ratio) for this item: U30C G52C
-3.38

Read the entry U21C U55G U59G G71U C115G and write its reported polymerase ribozyme fitness (log ratio).
-4.57

Identify measured polymerase ribozyme fitness (log ratio) associated with C49U G51U C62U C80A G113A C124A
-3.94

Hello, please tell me recorded polymerase ribozyme fitness (log ratio) for this one: G57C C73A G117C
-4.45

Recall and state the measured polymerase ribozyme fitness (log ratio) for C40A C72A A100C U132C .
-2.7

Name the recorded polymerase ribozyme fitness (log ratio) of the item C11G C85G in your answer.
-1.55

For the variant U7G A29U G42A C53U C62U , give its reported polymerase ribozyme fitness (log ratio).
-3.19

Please list polymerase ribozyme fitness (log ratio) recorded for the variant A6C C13A A37U C82U
-2.7

// fetch polymerase ribozyme fitness (log ratio) given entry C8U C13G G110U
-1.09

Answer with the recorded polymerase ribozyme fitness (log ratio) of C15U G65A G69U U87G only.
-4.77

State, in one line, measured polymerase ribozyme fitness (log ratio) of C53U A74G C98U
-1.16

Using known records, supply polymerase ribozyme fitness (log ratio) for G42U G47U G60A U112A C114U G117C
-5.02

Read off the recorded polymerase ribozyme fitness (log ratio) for A43G G60C C73A C88A
-3.87

Return reported polymerase ribozyme fitness (log ratio). Input variant: G51U U59G G63C G77C C80U U87C C124G U131G
-0.602

Supply reported polymerase ribozyme fitness (log ratio) belonging to this variant: C70U U96G
-1.09

Return reported polymerase ribozyme fitness (log ratio). Input variant: G61A A90G G128U
-1.55

Please report the measured polymerase ribozyme fitness (log ratio) for C76U C82U C102U G117A
-4.4

Quickly give me recorded polymerase ribozyme fitness (log ratio) for U21A C72G A75U C85U
-1.63

Consider the variant G110C G120U . State its measured polymerase ribozyme fitness (log ratio).
-4.38

Tell me measured polymerase ribozyme fitness (log ratio) for G44C C62A G77A U133A please.
-4.24

State, in one line, measured polymerase ribozyme fitness (log ratio) of C101U U109G A111U
-4.63

Output polymerase ribozyme fitness (log ratio) of C12A G17U A43U
-4.46
